Origin of the recorded values: PubChem BioAssay AID624131

- Test system: mouse liver microsomes, LC-MS/MS half-life
- PROTOCOL_DESCRIPTION: qHTS Assay to Find Inhibitors of T. brucei phosphofructokinase: Mouse Liver Microsome Stability
- MEASUREMENT_SETUP: at 1 µM; stronger effect = higher value
REPORTED_PROPERTY: half-life

Data request: Please report the recorded half-life for `O=C(Cc1ccc(Cl)c(Cl)c1)Nc1ccc(S(=O)(=O)Nc2ccon2)cc1` .
Data returned: 3.85 h
